- experiment.description: Toxicity against peritoneal macrophages assessed as survival induces at 136 uM
- Type: cell-based, Peritoneal macrophage cell
- condition.summary: read-out: Survival
observable: viability at 136 µM (%)
Write the number in % without appending the unit.

GET /value?item= `C=C(C)[C@@H]1CC[C@]2(C=O)CC[C@]3(C)[C@H](CC[C@@H]4[C@@]5(C)CC[C@H](O)C(C)(C)[C@@H]5CC[C@]43C)[C@@H]12` &field=viability at 136 µM returns 70

====

- System: Leishmania donovani
- experiment.description: Antileishmanial activity against Leishmania donovani amastigotes
- Assay type: functional, organism-based
observable: IC50

GET /value?item= C=C(C)[C@@H]1CC[C@]2(C(=O)O)CC[C@]3(C)[C@H](CC[C@@H]4[C@@]5(C)CC[C@H](O)C(C)(C)[C@@H]5CC[C@]43C)[C@@H]12 [BETULINIC ACID] &field=IC50 returns 4.1 µM

Data origin, for the record: ChEMBL document CHEMBL1156921
